These data points were gathered from patent US12226490B2.

Record form. Attribute: TM2. Fill in for each entry.
protocol_summary: Differential scanning fluorimetry (protein thermal shift; TM1 Fc, TM2 Fab)
Assay type: physicochemical
experimental_context: melting temperature of the Fab domain; Table 11
Field format: number, assumed °C, no unit text.

Report TM2 for SRP2196-B06 (antibody, V domains shown) VH: EVQLVESGGGLVQPGGSLRLSCAASGFNITGYYIHWVRQAPGKGLEWVGQISPNSGSTYSADSVKGRFTISADTSKNTAYLQMNSLRAEDTAVYYCARDSRRYVLSWDYWGQGTLVTVSS VL: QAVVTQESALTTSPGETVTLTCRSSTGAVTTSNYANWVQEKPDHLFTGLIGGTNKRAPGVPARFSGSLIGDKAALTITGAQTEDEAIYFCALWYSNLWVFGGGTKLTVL please.
70

// repeat for SRP2196-A05 (antibody, V domains shown) VH: EVQLVESGGGLVQPGGSLRLSCAASGFNITNYYIHWVRQAPGKGLEWVGYISPNSGATYQADSVKGRFTISADTSKNTAYLQMNSLRAEDTAVYYCARDSRRYVRSWDYWGQGTLVTVSS VL: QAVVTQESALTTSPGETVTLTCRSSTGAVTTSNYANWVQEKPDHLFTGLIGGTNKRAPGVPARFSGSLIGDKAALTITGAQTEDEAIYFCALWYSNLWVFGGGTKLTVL and report
71
